Cited source for all entries: patent US5459160A

In this section we review reported Bile secretion amount, percentage of the hour before dose values for a set of compounds.
- System: bile secretion
- ASSAY_TEXT: Cholagogic action, bile secretion (Experimental Example 5)
- Format: in vivo, male Wistar rats
- TEST_PARAMETERS: 3-4 hour after dose, intraduodenal; control 49.0; Table 9
- Procedure: After male Wistar rats 7 weeks old were fasted for 24 hours, they were anesthetized by the interperitoneal administration of 1.25 g/kg (volume 2 m.iota./kg) of urethane. A polyethylene canula (SP-10, a product of Natsume Seisakusho) was inserted into a bile duct and after the bile was caused to flow out for 30 minutes, the bile was collected in the cource of 1 hour. […] Furthermore, the bile was collected every hour in the course of five hours, and its weight was measured. […]
Give just the number in %; leave the unit off.

See these solved cases before continuing.
## Task Any idea what Bile secretion amount, percentage of the hour before dose was measured for OCC1=CC[C@@H]2C(CO)=CO[C@@H](OC3CCCCO3)[C@H]12 (stereo partly shown) [Definite Example 18] ?
## Result 51.1

## Task Any idea what Bile secretion amount, percentage of the hour before dose was measured for COC(=O)C1=CO[C@@H](O[C@@H]2O[C@H](CO)[C@@H](O)[C@H](O)[C@H]2O)[C@@H]2C(C)=CC[C@H]12 [Definite Example 8] ?
## Result 50.6

## Task Any idea what Bile secretion amount, percentage of the hour before dose was measured for COC(=O)C1=COC(=O)[C@H]2[C@@H]1CC[C@@H]2C [Definite Example 5] ?
## Result 52.6

Below: the item to evaluate.
## Task Any idea what Bile secretion amount, percentage of the hour before dose was measured for COC(=O)C1=COC(=O)[C@@H]2C(CO)=CC[C@H]12 [Definite Example 20] ?
## Result 48.6

====

- System: bile secretion
- ASSAY_TEXT: Cholagogic action, bile secretion (Experimental Example 5)
- Format: in vivo, male Wistar rats
- TEST_PARAMETERS: 4-5 hour after dose, intraduodenal; control 42.8; Table 9
MEASURE_NAME: Bile secretion amount, percentage of the hour before dose
Answer with the number, then the unit.

## Task Any idea what Bile secretion amount, percentage of the hour before dose was measured for COC(=O)C1=CO[C@@H](O[C@@H]2O[C@H](CO)[C@@H](O)[C@H](O)[C@H]2O)[C@@H]2C(C)=CC[C@H]12 [Definite Example 8] ?
## Result 44.4%

## Task Any idea what Bile secretion amount, percentage of the hour before dose was measured for COC(=O)C1=COC(=O)[C@@H]2C(CO)=CC[C@H]12 [Definite Example 20] ?
## Result 42.8%

## Task Any idea what Bile secretion amount, percentage of the hour before dose was measured for OCC1=CC[C@@H]2C(CO)=CO[C@@H](OC3CCCCO3)[C@H]12 (stereo partly shown) [Definite Example 18] ?
## Result 44.1%

## Task Any idea what Bile secretion amount, percentage of the hour before dose was measured for COC(=O)C1=COC(=O)[C@H]2[C@@H]1CC[C@@H]2C [Definite Example 5] ?
## Result 45.1%

====

- ASSAY_TEXT: Acute toxicity test
- TEST_PARAMETERS: mouse, in vivo, ip; male S.P.P. mice, abdominally administered; Table 11
In this section we review reported LD50 values for a set of molecules.
Give just the number in mg/kg; leave the unit off.

See these solved cases before continuing.
## Task Any idea what LD50 was measured for COC(=O)C1=COC(O)[C@@H]2[C@H](C)CC[C@H]12 (stereo partly shown) ?
## Result 814

## Task Any idea what LD50 was measured for `C[C@@H](CO)[C@H]1CC[C@H](C)[C@H]1CO` ?
## Result 406

## Task Any idea what LD50 was measured for `COC(=O)C1=COC(=O)[C@@H]2C(CO[Si](C)(C)C(C)(C)C)=CC[C@H]12` ?
## Result 355

## Task Any idea what LD50 was measured for `COC(=O)C1=CO[C@@H](O[C@@H]2O[C@H](COC(C)=O)[C@@H](OC(C)=O)[C@H](OC(C)=O)[C@H]2OC(C)=O)[C@@H]2C(C)=CC[C@H]12` ?
## Result 382

## Task Any idea what LD50 was measured for `COC(=O)C1=COC(=O)[C@@H]2C(CO[Si](c3ccccc3)(c3ccccc3)C(C)(C)C)=CC[C@H]12` ?
## Result 406

## Task Any idea what LD50 was measured for COC(=O)C1=COC(O)[C@@H]2[C@@H](CO)CC[C@H]12 (stereo partly shown) ?
## Result 406

Below: the item to evaluate.
## Task Any idea what LD50 was measured for `CC(=O)O[C@@H]1OC=C(CO)[C@H]2CC=C(CO)[C@@H]12` ?
## Result 473
